Assay: Apparent permeability across basolateral to apical side in dog MDCK-MDR1 cells incubated for 60 mins by HPLC analysis
Assay type: ADME, cell-based, Canis lupus familiaris
Classification field: t = Papp B→A at 1 h at or over 0.6 ×10⁻⁶ cm/s; f = Papp B→A at 1 h under 0.6 ×10⁻⁶ cm/s.

Would you please look over these solved cases?
1) COc1ccc(Cl)c(C(=O)N[C@@H](CNC(=O)Cn2c(=O)[nH]c3ccncc32)C(=O)O)c1F; t
2) Cc1ccc(Cl)c(C(=O)N[C@@H](CNC(=O)Cn2c(=O)[nH]c3nc(C)c(F)cc32)C(=O)O)c1F; t
3) Cc1ccc(Cl)c(C(=O)N[C@@H](CNC(=O)Cn2c(=O)[nH]c3cc(F)c(F)cc32)C(=O)O)c1F; f
4) Cc1ccc(Cl)c(C(=O)N[C@@H](CNC(=O)Cn2c(=O)[nH]c3ncncc32)C(=O)O)c1F; t

# next compound below
Can `Cc1cnc2[nH]c(=O)n(CC(=O)NC[C@H](NC(=O)c3c(Cl)ccc(C)c3F)C(=O)O)c2c1` be said to have Papp B→A at 1 h at or above 0.6 ×10⁻⁶ cm/s?
f

----------
Target: Integrin alpha-4/beta-1 (Homo sapiens, UniProt P05556+P13612)
Sequence (P05556 whole entry): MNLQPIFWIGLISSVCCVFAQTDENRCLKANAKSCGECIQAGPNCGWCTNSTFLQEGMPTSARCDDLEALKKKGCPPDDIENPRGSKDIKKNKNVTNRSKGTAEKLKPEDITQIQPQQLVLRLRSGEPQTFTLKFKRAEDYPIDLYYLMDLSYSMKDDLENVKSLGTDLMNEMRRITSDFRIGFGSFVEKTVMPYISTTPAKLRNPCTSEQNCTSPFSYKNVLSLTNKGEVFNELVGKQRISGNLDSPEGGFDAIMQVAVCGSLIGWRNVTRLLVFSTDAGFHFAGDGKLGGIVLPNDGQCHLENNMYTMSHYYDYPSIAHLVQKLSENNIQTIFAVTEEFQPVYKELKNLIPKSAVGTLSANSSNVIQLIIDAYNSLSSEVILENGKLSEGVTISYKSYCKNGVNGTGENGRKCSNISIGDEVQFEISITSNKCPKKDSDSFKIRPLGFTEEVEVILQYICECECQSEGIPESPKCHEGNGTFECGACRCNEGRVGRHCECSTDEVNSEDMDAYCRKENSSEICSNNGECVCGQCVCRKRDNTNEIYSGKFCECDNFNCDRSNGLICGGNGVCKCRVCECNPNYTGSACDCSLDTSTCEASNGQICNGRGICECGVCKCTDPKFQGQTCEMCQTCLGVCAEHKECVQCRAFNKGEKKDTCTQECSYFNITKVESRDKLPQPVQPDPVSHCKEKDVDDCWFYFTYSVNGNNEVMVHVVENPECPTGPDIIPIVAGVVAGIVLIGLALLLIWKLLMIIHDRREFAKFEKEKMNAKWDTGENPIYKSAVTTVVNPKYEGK
Sequence (P13612 whole entry): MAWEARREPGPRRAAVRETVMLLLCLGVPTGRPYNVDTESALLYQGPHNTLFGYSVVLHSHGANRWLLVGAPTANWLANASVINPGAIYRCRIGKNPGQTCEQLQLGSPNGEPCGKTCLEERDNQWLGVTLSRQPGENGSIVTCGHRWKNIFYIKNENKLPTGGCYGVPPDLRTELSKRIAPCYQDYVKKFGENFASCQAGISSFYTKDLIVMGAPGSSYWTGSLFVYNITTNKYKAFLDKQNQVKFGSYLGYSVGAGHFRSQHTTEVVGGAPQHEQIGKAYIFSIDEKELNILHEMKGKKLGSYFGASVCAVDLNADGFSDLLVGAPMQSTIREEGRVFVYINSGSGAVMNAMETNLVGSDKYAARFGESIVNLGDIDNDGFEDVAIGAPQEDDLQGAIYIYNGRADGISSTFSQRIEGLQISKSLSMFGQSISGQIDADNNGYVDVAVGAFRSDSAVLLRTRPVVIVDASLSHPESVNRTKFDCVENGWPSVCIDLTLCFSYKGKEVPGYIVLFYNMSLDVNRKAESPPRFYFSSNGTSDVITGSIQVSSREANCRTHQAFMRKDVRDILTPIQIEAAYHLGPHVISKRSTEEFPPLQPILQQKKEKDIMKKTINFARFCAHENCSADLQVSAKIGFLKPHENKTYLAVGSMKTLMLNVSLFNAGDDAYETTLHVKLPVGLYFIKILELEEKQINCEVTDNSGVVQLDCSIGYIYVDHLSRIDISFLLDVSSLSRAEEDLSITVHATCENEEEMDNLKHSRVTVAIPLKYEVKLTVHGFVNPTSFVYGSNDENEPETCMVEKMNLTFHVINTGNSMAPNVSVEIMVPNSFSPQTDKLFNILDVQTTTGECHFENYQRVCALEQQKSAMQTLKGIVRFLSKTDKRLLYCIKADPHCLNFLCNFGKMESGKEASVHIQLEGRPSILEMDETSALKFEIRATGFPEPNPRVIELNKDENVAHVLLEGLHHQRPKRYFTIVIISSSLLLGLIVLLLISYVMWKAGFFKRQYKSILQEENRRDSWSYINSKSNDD
Assay: Inhibition of Integrin alpha4beta1 mediated cellular adhesion in human Jurkat cells incubated for 24 hrs in presence of Ca2+ and Mg2+ by real-time cell analysis
Type: cell-based
readout kind: pIC50
Remember, pIC50 is on a log scale: it is -log10 of the molar concentration.

Identify measured pIC50 associated with `N=C(N)NCCCCC(=O)Nc1ccc(C[C@H](NC(=O)[C@@H]2CCCN2S(=O)(=O)c2ccccc2)C(=O)O)cc1`
7.46

----------
Assay: Tmax in Sprague-Dawley rat at 30 mg/kg,sc administration
Assay type: ADME, organism-based
Settings: in vivo
readout kind: Tmax (h)
Give the number; h is assumed, so skip it.

Identify measured Tmax associated with `Cc1ccc(Cl)c(C(=O)N[C@@H](CNC(=O)Cn2c(=O)[nH]c3nc(C)c(F)cc32)C(=O)O)c1F`
4.7

----------
// reported log10 of IC50 per item
Molecular target: Integrin alpha-5/beta-1 (Homo sapiens, UniProt P05556+P08648)
Experiment: Inhibition of recombinant human Integrin alpha5beta1 using TMB as substrate incubated for 2 hrs in presence of fibronectin by ELISA
Assay type: protein-complex assay
All values: log10 IC50 [nM].

Some molecules with known log10 of IC50 results, for comparison:
1. O=C(Cn1c(=O)[nH]c2ncccc21)NC[C@H](NC(=O)c1c(Cl)cccc1Cl)C(=O)O; 2.60
2. O=C(Cn1c(=O)[nH]c2ncccc21)NC[C@H](NC(=O)c1ccccc1Cl)C(=O)O; 2.80
3. COc1cc(F)c(C(=O)N[C@@H](CNC(=O)Cn2c(=O)[nH]c3ncccc32)C(=O)O)c(Cl)c1; 2.20
4. O=C(Cn1c(=O)[nH]c2ccccc21)NC[C@H](NC(=O)c1c(Cl)cccc1Cl)C(=O)O; 3.10
5. O=C(NC(CNc1ccc(N2CCNC2=O)cc1)C(=O)O)c1c(Cl)cccc1Cl (racemic); 2.80

Identify measured log10 of IC50 associated with `O=C(Cn1c(=O)[nH]c2ncccc21)NC[C@H](NC(=O)c1c(F)cccc1Cl)C(=O)O`
2.60

Identify measured log10 of IC50 associated with `Cc1ccc(Cl)c(C(=O)N[C@@H](CNC(=O)Cn2c(=O)[nH]c3ncccc32)C(=O)O)c1F`
1.80

Identify measured log10 of IC50 associated with `O=C(Cn1c(=O)[nH]c2ncccc21)NC[C@H](NC(=O)c1c(F)cc(-c2ccccc2)cc1Cl)C(=O)O`
2.80

Identify measured log10 of IC50 associated with `Cc1cc(C#N)cc(C)c1C(=O)N[C@@H](CNC(=O)Cn1c(=O)[nH]c2ncccc21)C(=O)O`
3.40

Identify measured log10 of IC50 associated with `COc1ccc(Cl)c(C(=O)N[C@@H](CNC(=O)Cn2c(=O)[nH]c3ncccc32)C(=O)O)c1F`
2.40

----------
Experiment: Half life in Wistar-Han rat at 1 mg/kg,iv administration
Assay type: ADME, organism-based
Details: in vivo
readout kind: half-life

Identify measured half-life associated with `Cc1ccc(Cl)c(C(=O)N[C@@H](CNC(=O)Cn2c(=O)[nH]c3nc(C)c(F)cc32)C(=O)O)c1F`
3.32 h

----------
Molecular target: Integrin alpha-V/beta-3 (Homo sapiens, UniProt P05106+P06756)
Sequence (P05106 27-788 limits assumed): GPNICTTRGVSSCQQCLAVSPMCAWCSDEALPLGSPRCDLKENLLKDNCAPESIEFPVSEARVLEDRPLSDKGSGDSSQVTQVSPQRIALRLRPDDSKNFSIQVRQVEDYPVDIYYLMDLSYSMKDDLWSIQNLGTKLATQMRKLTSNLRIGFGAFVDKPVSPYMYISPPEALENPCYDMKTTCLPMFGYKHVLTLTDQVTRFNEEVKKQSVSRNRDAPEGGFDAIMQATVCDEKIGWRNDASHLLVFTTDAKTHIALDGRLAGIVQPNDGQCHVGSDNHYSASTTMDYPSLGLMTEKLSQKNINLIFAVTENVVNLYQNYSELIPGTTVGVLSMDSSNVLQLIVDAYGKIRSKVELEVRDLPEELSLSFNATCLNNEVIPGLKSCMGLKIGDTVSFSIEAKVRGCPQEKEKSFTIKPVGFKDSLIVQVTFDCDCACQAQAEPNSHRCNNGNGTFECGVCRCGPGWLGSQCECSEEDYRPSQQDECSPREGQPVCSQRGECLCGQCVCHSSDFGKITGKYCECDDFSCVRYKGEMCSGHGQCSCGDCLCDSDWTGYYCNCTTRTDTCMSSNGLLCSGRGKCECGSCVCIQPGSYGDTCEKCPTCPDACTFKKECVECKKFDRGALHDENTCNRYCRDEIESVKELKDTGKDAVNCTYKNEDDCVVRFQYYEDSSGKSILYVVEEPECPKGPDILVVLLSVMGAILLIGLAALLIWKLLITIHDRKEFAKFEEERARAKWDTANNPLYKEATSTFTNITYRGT
Sequence (P06756 31-889 limits assumed): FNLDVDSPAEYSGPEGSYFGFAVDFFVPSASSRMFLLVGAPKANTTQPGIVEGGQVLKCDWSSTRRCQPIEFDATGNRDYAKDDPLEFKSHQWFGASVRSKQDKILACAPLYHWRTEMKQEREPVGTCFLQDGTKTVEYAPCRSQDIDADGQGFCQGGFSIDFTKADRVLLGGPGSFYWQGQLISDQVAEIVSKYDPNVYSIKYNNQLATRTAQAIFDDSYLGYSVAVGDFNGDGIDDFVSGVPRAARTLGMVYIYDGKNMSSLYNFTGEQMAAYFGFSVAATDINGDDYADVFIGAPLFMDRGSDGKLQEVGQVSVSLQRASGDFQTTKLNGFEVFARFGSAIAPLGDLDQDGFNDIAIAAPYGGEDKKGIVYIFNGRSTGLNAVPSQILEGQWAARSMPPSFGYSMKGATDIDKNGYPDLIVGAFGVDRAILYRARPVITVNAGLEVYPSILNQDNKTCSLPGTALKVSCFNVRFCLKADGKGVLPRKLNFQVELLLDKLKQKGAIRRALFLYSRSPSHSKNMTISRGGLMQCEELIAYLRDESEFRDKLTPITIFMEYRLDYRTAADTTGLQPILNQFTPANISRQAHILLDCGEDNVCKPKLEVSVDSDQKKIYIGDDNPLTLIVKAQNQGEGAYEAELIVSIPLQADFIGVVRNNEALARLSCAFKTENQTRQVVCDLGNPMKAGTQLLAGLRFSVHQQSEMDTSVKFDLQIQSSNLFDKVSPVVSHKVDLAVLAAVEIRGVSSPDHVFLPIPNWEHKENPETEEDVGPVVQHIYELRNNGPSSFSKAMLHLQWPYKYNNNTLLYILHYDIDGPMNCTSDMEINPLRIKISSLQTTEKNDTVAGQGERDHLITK
Sequence (P06756 891-1048 limits assumed): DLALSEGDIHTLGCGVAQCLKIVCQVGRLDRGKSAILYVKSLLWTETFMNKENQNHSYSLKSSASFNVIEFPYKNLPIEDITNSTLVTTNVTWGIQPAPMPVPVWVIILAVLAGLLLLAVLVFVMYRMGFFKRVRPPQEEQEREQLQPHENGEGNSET
Assay: Inhibition of recombinant human Integrin alphaVbeta3 using TMB as substrate incubated for 2 hrs in presence of vitronectin by ELISA
Type: protein-complex assay
// reported IC50 per item
Give the number; µM is assumed, so skip it.

1) O=C(CCCCc1ccc2c(n1)NCCC2)NCC(NC(=O)c1c(Cl)cccc1Cl)C(=O)O (racemic); 0.001

# input for lookup
Identify measured IC50 associated with O=C(NC(CNc1ccc(N2CCNC2=O)cc1)C(=O)O)c1c(Cl)cccc1Cl (racemic)
3.98

----------
// reported IC50 per item
Target: Integrin alpha-V/beta-8 (Homo sapiens, UniProt P06756+P26012)
Sequence (P06756 31-889 limits assumed): as the sequence (P06756 31-889 limits assumed) above
Sequence (P06756 891-1048 limits assumed): as the sequence (P06756 891-1048 limits assumed) above
Sequence (P26012 43-769 limits assumed): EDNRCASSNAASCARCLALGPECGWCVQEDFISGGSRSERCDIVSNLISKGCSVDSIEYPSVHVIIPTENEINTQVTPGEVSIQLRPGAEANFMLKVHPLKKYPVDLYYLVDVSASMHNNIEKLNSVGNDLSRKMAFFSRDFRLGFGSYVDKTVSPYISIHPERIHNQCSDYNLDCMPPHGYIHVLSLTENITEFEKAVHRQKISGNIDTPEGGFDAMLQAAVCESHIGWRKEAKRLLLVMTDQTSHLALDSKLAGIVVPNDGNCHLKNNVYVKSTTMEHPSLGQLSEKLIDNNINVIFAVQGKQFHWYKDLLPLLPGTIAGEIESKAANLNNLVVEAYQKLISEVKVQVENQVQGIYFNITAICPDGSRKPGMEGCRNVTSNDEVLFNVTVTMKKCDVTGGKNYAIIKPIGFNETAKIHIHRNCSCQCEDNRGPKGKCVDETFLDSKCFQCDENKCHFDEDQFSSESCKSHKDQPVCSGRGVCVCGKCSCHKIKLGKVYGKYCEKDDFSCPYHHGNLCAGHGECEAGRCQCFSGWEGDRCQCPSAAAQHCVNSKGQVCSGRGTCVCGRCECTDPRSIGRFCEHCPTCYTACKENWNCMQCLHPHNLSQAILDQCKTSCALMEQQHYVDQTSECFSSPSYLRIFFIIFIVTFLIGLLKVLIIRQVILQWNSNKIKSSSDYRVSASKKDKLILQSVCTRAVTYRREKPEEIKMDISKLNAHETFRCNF
Test: Inhibition of recombinant human Integrin alphaVbeta8 using TMB as substrate incubated for 2 hrs in presence of LAP by ELISA
Type: protein-complex assay
Give the number; µM is assumed, so skip it.

Some molecules with known IC50 results, for comparison:
1) O=C(NC(CNc1ccc(N2CCNC2=O)cc1)C(=O)O)c1c(Cl)cccc1Cl (racemic); 7.94
2) O=C(Cn1c(=O)[nH]c2ncccc21)NC[C@H](NC(=O)c1c(F)cccc1Cl)C(=O)O; 7.94
3) O=C(Cn1c(=O)[nH]c2ncccc21)NC[C@H](NC(=O)c1c(F)cc(-c2ccccc2)cc1Cl)C(=O)O; 6.31
4) COc1ccc(Cl)c(C(=O)N[C@@H](CNC(=O)Cn2c(=O)[nH]c3ncccc32)C(=O)O)c1F; 1.58
5) COc1cc(F)c(C(=O)N[C@@H](CNC(=O)Cn2c(=O)[nH]c3ncccc32)C(=O)O)c(Cl)c1; 3.98
6) O=C(Cn1c(=O)[nH]c2ncccc21)NC[C@H](NC(=O)c1c(Cl)cccc1Cl)C(=O)O; 6.31

# input for lookup
Identify measured IC50 associated with `Cc1ccc(Cl)c(C(=O)N[C@@H](CNC(=O)Cn2c(=O)[nH]c3ncccc32)C(=O)O)c1F`
2

----------
Assay: AUC (0 to 24 hrs) in Sprague-Dawley rat at 30 mg/kg,sc administration
Type: ADME, organism-based
Conditions: in vivo
readout kind: AUC(0-t) (µg·h/mL)
Give the number; µg·h/mL is assumed, so skip it.

Identify measured AUC(0-t) associated with `Cc1ccc(Cl)c(C(=O)N[C@@H](CNC(=O)Cn2c(=O)[nH]c3nc(C)c(F)cc32)C(=O)O)c1F`
630

----------
Biological target: Integrin alpha-V/beta-8 (Homo sapiens, UniProt P06756+P26012)
Assay: Inhibition of Integrin alphaVbeta8 in human SNB-19 cells cocultured with TGF-beta expressing Mv1Lu cells assessed as inhibition of integrin alphaVbeta8 mediated TGF-beta transactivation by luciferase assay
Assay type: cell-based
readout kind: IC50 (µM)
Give the number; µM is assumed, so skip it.

1. N=C(N)NCCCCC(=O)Nc1ccc(C[C@H](NC(=O)[C@@H]2CCCN2S(=O)(=O)c2ccccc2)C(=O)O)cc1; 1.74

# input for lookup
Identify measured IC50 associated with `Cc1ccc(Cl)c(C(=O)N[C@@H](CNC(=O)Cn2c(=O)[nH]c3nc(C)c(F)cc32)C(=O)O)c1F`
9.55

----------
Experiment: AUC (0 to infinity) in Wistar-Han rat at 1 mg/kg,iv administration
Type: ADME, organism-based
Conditions: in vivo
readout kind: AUC(0-inf) (ng·h/mL)
Give the number; ng·h/mL is assumed, so skip it.

Identify measured AUC(0-inf) associated with `Cc1ccc(Cl)c(C(=O)N[C@@H](CNC(=O)Cn2c(=O)[nH]c3nc(C)c(F)cc32)C(=O)O)c1F`
44000

----------
Experiment: AUC (0 to infinity) in Sprague-Dawley rat at 30 mg/kg,sc administration
Format: ADME, organism-based
Conditions: in vivo
readout kind: AUC(0-inf) (µg·h/mL)
Give the number; µg·h/mL is assumed, so skip it.

Identify measured AUC(0-inf) associated with `Cc1ccc(Cl)c(C(=O)N[C@@H](CNC(=O)Cn2c(=O)[nH]c3nc(C)c(F)cc32)C(=O)O)c1F`
630

----------
Test: Half life in Wistar rat at 10 mg/kg,po administration
Assay type: ADME, organism-based
Settings: in vivo
readout kind: half-life

Identify measured half-life associated with `Cc1ccc(Cl)c(C(=O)N[C@@H](CNC(=O)Cn2c(=O)[nH]c3nc(C)c(F)cc32)C(=O)O)c1F`
312 min

----------
Test: Tmax in Wistar rat at 10 mg/kg,po administration
Type: ADME, organism-based
Conditions: in vivo
readout kind: Tmax
# number then unit; no other words

Identify measured Tmax associated with `Cc1ccc(Cl)c(C(=O)N[C@@H](CNC(=O)Cn2c(=O)[nH]c3nc(C)c(F)cc32)C(=O)O)c1F`
2.8 h

These entries and their values trace back to ChEMBL document CHEMBL5500400.
